Values were extracted from PubChem BioAssay (NCI).

test system: OVCAR-4 ovarian; assay: NCI-60 one-dose screen, 48 h; conditions: 10 µM unless noted
About 83,000 compounds went through this panel and 20% of them were active in at least one assay; those are over-represented in the sample as a whole. Active and inactive are the calls of the source. How the source made its calls: active means growth percent below 10; inactive means the rest.
Give your call using only these classes: active, inactive

{"columns": ["molecule", "experimental-system", "category-label"],
 "data": [
  ["O=C(NC1CCCCCC1)c1ccc2c(=O)n3c(nc2c1)CCCCC3", "OVCAR-4 ovarian", "inactive"],
  ["CCN(CC)CCCNc1cc(OC)cc2cccnc12", "OVCAR-4 ovarian", "inactive"],
  ["Cc1[nH]c(C(=O)Nc2ccc(C(N)=O)cc2OC(C)C)c(Cl)c1Cl", "OVCAR-4 ovarian", "inactive"],
  ["COC(=O)CCc1c(/C=C2\\N=C(c3ccc[nH]3)C=C2OC)[nH]c(C)c1C(=O)OCc1ccccc1", "OVCAR-4 ovarian", "inactive"],
  ["N#C/C(=N\\Nc1ccccc1)C(=O)Nc1cc(-c2ccccc2)nn1-c1ccccc1", "OVCAR-4 ovarian", "inactive"],
  ["COc1cc2c(cc1-c1c(C)noc1C)ncc1nc(C3CCOCC3)n(C3CCC(OC(F)F)CC3)c12 (stereo not given)", "OVCAR-4 ovarian", "inactive"]
]}

stdin: How did this test come out for `Cc1cccc(CN(Nc2ccccc2)c2ccccc2)n1` ?
stdout: inactive

stdin: Test call for this molecule, please: `CCCCCCCCNc1ncnc2c1ncn2Cc1nnc2c3ccccc3c(Cl)nn12`
stdout: inactive

stdin: Hey, what did the test say about `CCN(CC)c1ccc(/C=N/NC(=O)c2ccccc2Nc2ccnc(C(F)(F)F)c2)c(O)c1` ?
stdout: inactive

stdin: What outcome does the record of this test show for `Oc1ccc(Cc2ccc(O)c3ncccc23)c2cccnc12` ?
stdout: inactive

stdin: Write down the call the test reported for this molecule. Item: `COC1=C(OC)C(=O)C(CCCCCCCCCCO)=C(C)C1=O`
stdout: active

stdin: Outcome? COc1ccccc1/C=C/C1=C(C)CCC(c2ccccc2OC)C1C (stereo not given)
stdout: inactive

stdin: Entry `COc1cc(OCc2cccc(-c3ccc4c(c3)OCCO4)c2C)cc(OC)c1C=O` : call = ?
stdout: inactive

stdin: Kindly provide the recorded test outcome for the following molecule: `CCOC(=O)c1ccc2c(c1)[n+](=O)c(C(C)=O)c(C(F)(F)F)n2[O-]`
stdout: active

stdin: Dear all, I need the recorded test outcome for `COc1ccc(NC(=O)c2ccc(NC3=C(c4ccc(Cl)cc4)C(=O)NC3=O)cc2)cc1` , thank you.
stdout: inactive

stdin: // return assay outcome for `Oc1cccc2c1NCCC2`
stdout: inactive

stdin: Per the assay record, what outcome was assigned to CCN1C(=O)N(CC)C2C1NN=c1s/c(=C\c3ccc([N+](=O)[O-])cc3)c(=O)n12 (stereo not given) ?
stdout: inactive

stdin: Recorded test outcome, item CCCC1Cc2cc(-n3nc(C)c4c3CC(C)(C)CC4=O)cc(NC3CCC(O)CC3)c2C(=O)N1 (stereo not given)
stdout: inactive

stdin: Could you check what this test reported for CN1C(=O)N(C)C2C1NN=c1s/c(=C\c3ccc(F)cc3)c(=O)n12 (stereo not given) ?
stdout: inactive

stdin: Outcome? `CCN(CC)CCOc1ccc(/C(=C(\C)Cc2ccc(OC)cc2)c2ccc(O)cc2)cc1`
stdout: inactive

stdin: Hey, what did the test say about `COc1cc2cc(Oc3ccc(NC(=O)Nc4ccc(F)c(C(F)(F)F)c4)cc3)c(C)nc2cc1OCCN1CCCCC1` ?
stdout: active

stdin: I would be grateful if you could indicate the recorded call for `COC(=O)c1cc(-c2ccc(OC)c(OC)c2)[nH]c1N/N=C/c1c(Cl)cccc1Cl` .
stdout: inactive

stdin: What outcome does the record of this test show for `O=C(O)/C=C/c1cn(-c2ccccc2)nc1-c1ccc(F)cc1` ?
stdout: inactive

stdin: What is the recorded call for this molecule in the test? CCN1C(=O)N(CC)C2C1NC(=S)N2/N=C/C=C/c1cccs1 (stereo not given)
stdout: inactive

stdin: Would you mind telling me which call this test gave `Cc1ccc(NC(=O)c2ccc(Nc3ncnc4c3cnn4-c3cccc(F)c3)cc2)cc1` ?
stdout: inactive
